- experimental-details: Stability in pH 8 sodium phosphate buffer assessed as hydrolysis at 100 uM at 360 mins
- Format: physicochemical
- run-parameters: read-out: Activity

{"smiles-input": "CN1C(=O)C=C(c2ccccc2)C1=O", "degraded at 6 h, 100 µM / %": 73.8}

----------
- experimental-details: Stability in pH 7.4 sodium phosphate buffer assessed as hydrolysis at 100 uM at 360 mins
- Type: physicochemical
- run-parameters: read-out: Activity

{"smiles-input": "CN1C(=O)C=C(c2ccccc2)C1=O", "uom": "%", "degraded at 6 h, 100 µM": 31.4}
